Just for reference, ChEMBL document CHEMBL4311959 is where these values come from.

- procedureSummary: Half life in Sprague-Dawley rat at 10 mg/kg, po measured for each 30 mins by LC-MS/MS analysis
- Type: ADME, organism-based
- appliedConditions: in vivo
experimentalReadout: half-life (min)
Just the number in min, nothing appended.

input: Please look up its half-life: "COc1ccc(-c2nn(-c3cccc(NC(=O)c4cccc(C(F)(F)F)c4)c3)cc2-c2ccncc2)cc1Cl"
output: 438

* * *

experimentalReadout: pIC50
Would you please state pIC50, meaning minus log10 of the concentration in mol/L, as a bare number?

input: Please provide the recorded pIC50 for "COc1ccc(-c2nn(-c3cccc(NC(=O)c4cccc(C(F)(F)F)c4)c3)cc2-c2ccncc2)cc1Cl" , tested on RAF proto-oncogene serine/threonine-protein kinase (Homo sapiens, UniProt P04049).
Sequence (P04049 whole entry): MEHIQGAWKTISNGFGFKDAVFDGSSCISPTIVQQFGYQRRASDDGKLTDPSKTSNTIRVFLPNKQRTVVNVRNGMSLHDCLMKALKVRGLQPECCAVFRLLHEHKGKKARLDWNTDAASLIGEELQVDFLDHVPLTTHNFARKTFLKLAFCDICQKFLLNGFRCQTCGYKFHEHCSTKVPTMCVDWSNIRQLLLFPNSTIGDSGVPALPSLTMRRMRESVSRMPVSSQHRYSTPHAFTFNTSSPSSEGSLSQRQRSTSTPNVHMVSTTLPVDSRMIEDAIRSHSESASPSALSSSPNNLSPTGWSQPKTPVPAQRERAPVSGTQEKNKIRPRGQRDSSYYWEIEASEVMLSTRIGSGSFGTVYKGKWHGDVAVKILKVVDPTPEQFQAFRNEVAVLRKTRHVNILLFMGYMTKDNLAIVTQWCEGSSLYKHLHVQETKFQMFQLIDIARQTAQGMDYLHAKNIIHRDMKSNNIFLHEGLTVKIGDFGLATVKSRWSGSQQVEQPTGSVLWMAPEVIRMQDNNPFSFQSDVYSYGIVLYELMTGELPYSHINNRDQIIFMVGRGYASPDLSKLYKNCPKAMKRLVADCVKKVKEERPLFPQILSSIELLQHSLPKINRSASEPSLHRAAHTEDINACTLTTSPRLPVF
output: 6.47
